Molecular target: human FPR2 (Homo sapiens (Human), UniProt P25090)
Sequence (P25090 whole entry): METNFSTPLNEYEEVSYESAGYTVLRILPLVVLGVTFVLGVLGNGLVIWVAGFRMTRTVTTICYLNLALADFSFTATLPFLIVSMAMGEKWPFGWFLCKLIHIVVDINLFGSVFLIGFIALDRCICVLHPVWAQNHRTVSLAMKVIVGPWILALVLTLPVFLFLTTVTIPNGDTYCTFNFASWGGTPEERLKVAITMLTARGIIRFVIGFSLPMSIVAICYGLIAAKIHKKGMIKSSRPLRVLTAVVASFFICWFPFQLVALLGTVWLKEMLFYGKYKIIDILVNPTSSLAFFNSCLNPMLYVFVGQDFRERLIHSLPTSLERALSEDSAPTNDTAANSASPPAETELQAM
Test: FPR2 cyclic adenosine monophosphate (cAMP) assay
Conditions: CHO cells overexpressing human FPR2; forskolin 5 μM, IBMX 200 μM; inhibition of cAMP production, HTRF; read-out: hFPR2 cAMP2 EC50
endpoint: EC50 (nM)

1) CP(C)(=O)c1ncccc1-c1ccc(N2CC[C@@H](NC(=O)Nc3ccc(C(F)(F)F)cc3F)C2=O)c(F)c1F [Example 73] : 0.89
2) CC(=O)NC(C)c1cccc(-c2ccc(N3CC[C@@H](NC(=O)Nc4ccc(Cl)cc4F)C3=O)c(F)c2F)c1 (some centres unmarked) [Example 44] : 43
3) CC1C[C@@H](NC(=O)Nc2ccc(C(F)(F)F)cc2F)C(=O)N1c1ccc(-c2ccccc2P(C)(C)=O)c(F)c1F (some centres unmarked) [Example 115] : 1.2
4) CCOP(C)(=O)c1ccccc1-c1ccc(N2CC[C@@H](NC(=O)Nc3ccc(Cl)cc3F)C2=O)c(F)c1F (some centres unmarked) [Example 101] : 0.66
5) COc1c(-c2ccccc2NS(C)(=O)=O)ccc(N2CC[C@@H](NC(=O)Nc3ccc(Cl)cc3F)C2=O)c1F [Example 34] : 4.1
6) CC1C[C@@H](NC(=O)Nc2ccc(C(F)(F)F)cc2F)C(=O)N1c1ccc(-c2ccccc2P(C)(C)=O)c(F)c1F (some centres unmarked) [Example 116] : 1.21
7) CC1C[C@@H](NC(=O)Nc2ccc(Cl)cc2F)C(=O)N1c1ccc(-c2ccccc2P(C)(C)=O)c(F)c1F (stereo in doubt) [Example 109] : 0.44
8) CS(=O)(=O)c1ccccc1-c1ccc(N2C(=O)[C@H](NC(=O)Nc3ccc(Cl)cc3F)C[C@H]2CO)c(F)c1F [Example 42] : 1
9) O=C(Nc1ccc(C(F)(F)F)cc1)N[C@@H]1CCN(c2ccc(-c3ccccc3CO)c(F)c2F)C1=O [Example 41] : 3.6
10) O=C(Nc1ccc(Cl)cc1F)N[C@@H]1CCN(c2ccc(-c3ccccc3N3CCOC3=O)c(F)c2F)C1=O [Example 119] : 14
11) CS(=O)(=O)c1ccccc1-c1ccc(N2C(=O)[C@H](NC(=O)Nc3ccc(C(F)(F)F)cc3F)C[C@H]2CO)c(F)c1F [Example 39] : 0.58
12) CS(=O)(=O)Nc1ccccc1-c1ccc(N2CC[C@@H](NC(=O)Nc3ccc(C(F)(F)F)cc3)C2=O)cc1 [Example 14] : 7.2
13) CP(C)(=O)c1ccccc1-c1ccc(N2CC[C@@H](NC(=O)Nc3ccc(C(F)(F)F)cc3F)C2=O)c(F)c1C1CC1 [Example 89] : 4.4
14) CCP(=O)(CC)c1ccccc1-c1ccc(N2CC[C@@H](NC(=O)Nc3ncc(Cl)cc3F)C2=O)c(F)c1F [Example 67] : 2.48
